Below is a list of entries, each paired with its recorded inhibition value.
- measurement.target: G protein-coupled receptor kinase 6 (Homo sapiens);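 also: mean percent inhibition of GRK6, GSK PKIS screen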
- conditions: at 0.1 µM
measured.property: inhibition (%)

CNC(=O)c1cncc(/C=C/c2ccccc2C)c1 = 3.92
c1ccc(-c2n[nH]cc2-c2ccnc(-c3ccc(OCCn4ccnc4)cc3)c2)nc1 = 1.73
Cc1cc(O)cc(C)c1/C=C/c1cncc(C(N)=O)c1 = 2.81
CCS(=O)(=O)c1ccc(OC)c(Nc2ncc(-c3cccc(F)c3)o2)c1 = 4.17
NS(=O)(=O)c1ccc(N/N=C2\C(=O)Nc3cccc(CCc4ccncc4)c32)cc1 = 0.11
Cc1c2ccc(N(C)c3ccnc(Nc4cccc(S(N)(=O)=O)c4)n3)cc2nn1C = -0.96
OCCCNc1nccc(-c2c(-c3ccc(F)cc3)nn3cc(C(F)(F)F)ccc23)n1 = 1.18
N#Cc1ccc2c(-c3ccnc(NC4CC4)n3)c(-c3ccc(F)cc3)nn2c1 = 1.67
Cn1c(-c2nonc2N)nc2cnccc21 = 3.53
CNC(=O)c1ncccc1Nc1nc(Nc2cc3c(cc2OC)CCCN3C(=O)CN(C)C)nc2[nH]ccc12 = 14.5
CNC(=O)c1sc(-n2cnc3cc(OC)c(OC)cc32)cc1OCc1ccccc1C(F)(F)F = 0.06
CC1=C(C(=O)Nc2ccc3[nH]ncc3c2)C(c2ccc(F)cc2)N=C(c2ccc(C(F)(F)F)nc2)N1 (configuration not stated) = 3.1
CS(=O)(=O)CCNCc1ccc(-c2ccc3ncnc(Nc4ccc(OCc5cccc(C(F)(F)F)c5)cc4)c3c2)o1 = 6.2
CN(C)CCNC(=O)Nc1ccc(N(C)c2ccnc(Nc3ccc(CS(C)(=O)=O)cc3)n2)cc1 = 2.73
COc1ccc(-c2nn3ncccc3c2-c2ccnc(Nc3ccc(F)c(F)c3)n2)cc1 = 7.85
O=C1Nc2ccccc2/C1=C1\CCc2cc(O)ccc21 = 2.32
COc1cc(Nc2ncc(-c3ccccc3)o2)cc(OC)c1 = 0.04
COc1cc2c(cc1Nc1nc(Nc3cccc(F)c3C(N)=O)c3cc[nH]c3n1)N(C(=O)CN1CCN(C(C)C)CC1)CC2 = 7.5
CCS(=O)(=O)c1ccc(OC)c(Nc2ncc(-c3cccc(C(C)=O)c3)o2)c1 = 3.78
NC(=O)c1ccc2c(-c3ccnc(NCCCO)n3)c(-c3ccc(F)cc3)nn2c1 = 0.86
FC(F)(F)CNc1nccc(-c2cnn3ncccc23)n1 = -2.66
Fc1cccc(COc2ccc(Nc3ncncc3C#Cc3ccccc3)cc2Cl)c1 = 7.01

----------
- measurement.target: NT-3 growth factor receptor (Homo sapiens);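 also: mean percent inhibition of TRKC, reported within the GSK PKIS dataset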
- conditions: at 0.1 µM
Tick criterion met if inhibition is 3% or greater. Tick criterion not met if inhibition is less than 3%.

NS(=O)(=O)c1ccc(N/N=C2\C(=O)Nc3cccc(CCc4ccncc4)c32)cc1 = criterion met
NS(=O)(=O)c1cccc(N/C=C2\C(=O)Nc3ccccc32)c1 = criterion met
COc1cc(N2CCN(C(C)C)CC2)ccc1Nc1nc(Nc2cccc(F)c2C(=O)O)c2cc[nH]c2n1 = criterion not met
CC1=C(C(=O)Nc2ccc3[nH]nc(C)c3c2)C(c2ccc(C(F)(F)F)cc2)CC(=O)N1 (stereo not given) = criterion not met
COc1ccc2ncn(-c3cc(O[C@H](C)c4ccccc4C(F)(F)F)c(C(N)=O)s3)c2c1 = criterion not met

----------
- measurement.target: Fibroblast growth factor receptor 3 (Homo sapiens);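 also: each value is a mean percent inhibition of FGFR3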
- conditions: at 0.1 µM
measured.property: inhibition

O=C(Nc1n[nH]c2nnc(-c3cccnc3)cc12)C1CC1 = 0.05%
NS(=O)(=O)c1ccc(N/N=C2\C(=O)Nc3ccc(C(=O)NCc4ccncc4)cc32)cc1 = 4.61%
NS(=O)(=O)c1cccc(N/C=C2\C(=O)Nc3ccccc32)c1 = 8.3%
NC(=O)c1ccc2c(-c3ccnc(NCCCO)n3)c(-c3ccc(F)cc3)nn2c1 = 5.45%
COc1ccc2ncn(-c3cc(O[C@H](C)c4ccccc4C(F)(F)F)c(C(N)=O)s3)c2c1 = 0.12%
NS(=O)(=O)c1ccc(N/N=C2\C(=O)Nc3cccc(CCc4ccncc4)c32)cc1 = 6.3%
COc1cc2c(cc1Nc1nc(Nc3cccc(F)c3C(N)=O)c3cc[nH]c3n1)N(C(=O)CN1CCN(C(C)C)CC1)CC2 = 7.88%
CN(c1ccc(NC(=O)NCCN2CCOCC2)cc1)c1ccnc(Nc2ccc(CS(C)(=O)=O)cc2)n1 = 6.19%
COc1cc(Nc2ncc(-c3ccccc3)o2)cc(OC)c1 = 1.91%
CS(=O)(=O)CCNCc1ccoc1-c1ccc2ncnc(Nc3ccc(OCc4ccccc4)cc3)c2c1 = 2.09%
O=C(O[C@H]1CN[C@H](C#Cc2cc3ncnc(Nc4ccc5c(ccn5Cc5cc(F)ccc5F)c4)c3s2)C1)N1CCOCC1 = 5.33%
CS(=O)(=O)Nc1ccc(-c2cc(-c3ccccc3)cc(C(N)=O)c2N)cc1 = -0.12%
CNC(=O)c1ncccc1Nc1nc(Nc2cc3c(cc2OC)CCCN3C(=O)CN(C)C)nc2[nH]ccc12 = 7.55%
N#Cc1ccc2c(-c3ccnc(NC4CC4)n3)c(-c3ccc(F)cc3)nn2c1 = 1.76%

----------
- measurement.target: Rho-associated protein kinase 1 (Homo sapiens) (UniProt Q13464);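 also: reported values are mean percent inhibition of ROCK1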
- Sequence (Q13464 2-1354 limits assumed): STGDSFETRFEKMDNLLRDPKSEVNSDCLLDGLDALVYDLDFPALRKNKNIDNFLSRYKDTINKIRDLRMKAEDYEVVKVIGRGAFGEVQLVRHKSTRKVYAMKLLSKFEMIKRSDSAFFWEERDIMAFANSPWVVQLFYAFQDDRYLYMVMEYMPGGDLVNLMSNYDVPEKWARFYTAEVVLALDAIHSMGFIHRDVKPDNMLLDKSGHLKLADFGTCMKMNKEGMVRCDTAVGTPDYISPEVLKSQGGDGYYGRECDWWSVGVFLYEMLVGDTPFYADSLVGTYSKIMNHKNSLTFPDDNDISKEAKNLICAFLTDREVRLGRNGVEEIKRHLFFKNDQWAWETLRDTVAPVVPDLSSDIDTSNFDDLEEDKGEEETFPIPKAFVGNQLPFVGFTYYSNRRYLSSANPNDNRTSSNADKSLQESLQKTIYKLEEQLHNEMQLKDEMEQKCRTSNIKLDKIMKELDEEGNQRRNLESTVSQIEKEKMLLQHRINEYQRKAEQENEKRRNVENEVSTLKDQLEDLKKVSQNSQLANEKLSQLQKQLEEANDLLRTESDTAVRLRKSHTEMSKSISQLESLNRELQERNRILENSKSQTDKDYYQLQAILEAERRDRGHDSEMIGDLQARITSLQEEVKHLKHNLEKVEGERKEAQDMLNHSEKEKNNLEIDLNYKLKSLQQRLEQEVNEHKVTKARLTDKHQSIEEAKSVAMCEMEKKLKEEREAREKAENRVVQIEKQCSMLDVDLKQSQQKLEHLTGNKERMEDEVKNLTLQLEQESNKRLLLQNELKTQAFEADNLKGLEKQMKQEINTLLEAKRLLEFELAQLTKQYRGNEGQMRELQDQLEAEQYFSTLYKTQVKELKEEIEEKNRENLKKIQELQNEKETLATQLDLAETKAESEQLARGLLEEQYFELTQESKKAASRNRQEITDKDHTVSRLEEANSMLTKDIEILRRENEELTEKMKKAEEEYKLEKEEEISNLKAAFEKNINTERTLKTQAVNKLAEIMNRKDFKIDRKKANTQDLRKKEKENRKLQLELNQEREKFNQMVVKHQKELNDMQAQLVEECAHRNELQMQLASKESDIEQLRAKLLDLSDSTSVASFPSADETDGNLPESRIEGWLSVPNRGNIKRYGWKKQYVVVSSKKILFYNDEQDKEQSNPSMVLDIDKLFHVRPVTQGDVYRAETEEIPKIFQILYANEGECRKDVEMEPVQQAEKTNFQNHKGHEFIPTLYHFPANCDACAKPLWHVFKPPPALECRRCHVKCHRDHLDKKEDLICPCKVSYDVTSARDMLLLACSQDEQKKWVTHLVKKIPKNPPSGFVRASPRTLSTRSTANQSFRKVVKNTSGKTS
- conditions: at 1 µM
measured.property: inhibition (%)

CC1(C)CC(n2cnc(-c3ccc(F)cc3)c2-c2ccnc(N)n2)CC(C)(C)N1 = 1.6
CC1=C(C(=O)Nc2ccc3[nH]nc(C)c3c2)C(c2ccc(C(F)(F)F)cc2)CC(=O)N1 (stereo not given) = 89.8
CCN1CCC(C(=O)Nc2n[nH]c3nnc(-c4cccc(F)c4F)cc23)CC1 = -0.9
COc1cccc(-n2ncc3c(N/N=C/c4ccc(C(=O)NCCN(C)C)cc4)ncnc32)c1 = 7.32
NS(=O)(=O)c1ccc(N/N=C2\C(=O)Nc3ccc(C(=O)NCc4ccncc4)cc32)cc1 = 5.11
CS(=O)(=O)Nc1ccc(-c2cc(-c3ccccc3)cc(C(N)=O)c2N)cc1 = 1.71
Cc1cc(O)cc(C)c1/C=C/c1cncc(C(N)=O)c1 = 3.29
c1cnn2ncc(-c3ccnc(NCCCN4CCOCC4)n3)c2c1 = 4.7
CNC(=O)c1ncccc1Nc1nc(Nc2cc3c(cc2OC)CCCN3C(=O)CN(C)C)nc2[nH]ccc12 = 8.73
O=C(O[C@H]1CN[C@H](C#Cc2cc3ncnc(Nc4ccc(OCc5cccc(F)c5)c(Cl)c4)c3s2)C1)N1CCOCC1 = 1.71
CCn1c(-c2nonc2N)nc2cncc(C(=O)NCCNC)c21 = 91.6
O=C(O[C@H]1CN[C@H](C#Cc2cc3ncnc(Nc4ccc5c(ccn5Cc5cc(F)ccc5F)c4)c3s2)C1)N1CCOCC1 = 3.4
Cn1c(-c2nonc2N)nc2cnccc21 = 52.4
CN(C)CCNC(=O)Nc1ccc(N(C)c2ccnc(Nc3ccc(CS(C)(=O)=O)cc3)n2)cc1 = 19.8
CC(C)c1ccc(-c2cc(-c3c[nH]nc3-c3ccccn3)ccn2)cc1 = 1.96
CS(=O)(=O)CCNCc1ccc(-c2ccc3ncnc(Nc4ccc(OCc5ccccc5)cc4)c3c2)o1 = 1.69
FC(F)(F)CNc1nccc(-c2cnn3ncccc23)n1 = -0.11
NC(=O)c1ccc2c(-c3ccnc(NCCCO)n3)c(-c3ccc(F)cc3)nn2c1 = 1.92
O=C(Nc1n[nH]c2nnc(-c3cccnc3)cc12)C1CC1 = 1.3
Cc1nnc(-c2cccc(-c3ccc(C(=O)NCC4CC4)cc3)c2)o1 = 2.23

----------
- measurement.target: Leukocyte tyrosine kinase receptor (Homo sapiens) (UniProt P29376)
- Sequence (P29376 whole entry): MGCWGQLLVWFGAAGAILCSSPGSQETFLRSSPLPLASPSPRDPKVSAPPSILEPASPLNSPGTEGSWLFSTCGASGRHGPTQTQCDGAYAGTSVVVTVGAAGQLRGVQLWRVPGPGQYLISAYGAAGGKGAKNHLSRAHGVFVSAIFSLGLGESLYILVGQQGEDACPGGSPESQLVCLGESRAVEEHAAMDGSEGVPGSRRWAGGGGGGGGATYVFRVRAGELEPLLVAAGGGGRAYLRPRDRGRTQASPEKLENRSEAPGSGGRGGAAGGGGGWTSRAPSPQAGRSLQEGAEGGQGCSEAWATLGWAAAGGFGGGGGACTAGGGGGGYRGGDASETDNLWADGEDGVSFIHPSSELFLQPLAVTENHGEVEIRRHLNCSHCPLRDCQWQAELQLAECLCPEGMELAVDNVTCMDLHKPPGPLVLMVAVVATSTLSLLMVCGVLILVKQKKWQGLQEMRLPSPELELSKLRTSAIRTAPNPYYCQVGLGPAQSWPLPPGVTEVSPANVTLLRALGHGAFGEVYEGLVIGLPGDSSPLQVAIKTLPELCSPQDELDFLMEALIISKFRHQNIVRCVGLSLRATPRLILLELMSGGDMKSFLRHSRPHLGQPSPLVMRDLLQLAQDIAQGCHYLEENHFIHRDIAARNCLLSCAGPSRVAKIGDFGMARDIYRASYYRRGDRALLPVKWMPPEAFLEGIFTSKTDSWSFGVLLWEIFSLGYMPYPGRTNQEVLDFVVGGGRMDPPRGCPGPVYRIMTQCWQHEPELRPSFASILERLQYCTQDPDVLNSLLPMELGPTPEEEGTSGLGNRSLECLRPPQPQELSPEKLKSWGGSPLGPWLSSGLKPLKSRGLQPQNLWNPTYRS
- conditions: at 0.1 µM
- Description: GSK_PKIS: LTK mean inhibition at 0.1 uM [Nanosyn]
Below is a list of entries, each paired with its recorded inhibition value.
measured.property: inhibition (%)

CN(C)CCNC(=O)Nc1ccc(N(C)c2ccnc(Nc3ccc(CS(C)(=O)=O)cc3)n2)cc1 = 3.62
Cc1c2ccc(N(C)c3ccnc(Nc4cccc(S(N)(=O)=O)c4)n3)cc2nn1C = 4.98
CCN1CCC(C(=O)Nc2n[nH]c3nnc(-c4cccc(F)c4F)cc23)CC1 = -0.09
O=C1Nc2ccccc2/C1=C1\CCc2cc(O)ccc21 = 7.84
N#Cc1cccc(Nc2ncc(-c3ccccc3)o2)c1 = 4.04
O=C(O[C@H]1CN[C@H](C#Cc2cc3ncnc(Nc4ccc5c(ccn5Cc5cc(F)ccc5F)c4)c3s2)C1)N1CCOCC1 = 5.27
CCOc1ccc2c(-c3ccnc(Nc4cc(OC)cc(C(F)(F)F)c4)n3)cnn2n1 = 0.61
CS(=O)(=O)CCNCc1ccc(-c2ccc3ncnc(Nc4ccc(OCc5cccc(C(F)(F)F)c5)cc4)c3c2)o1 = 5.96
CCn1c(-c2nonc2N)nc2cncc(C(=O)NCCNC)c21 = 5.21
CC1(C)CC(n2cnc(-c3ccc(F)cc3)c2-c2ccnc(N)n2)CC(C)(C)N1 = 1.09

----------
Below is a list of entries, each paired with its recorded inhibition value.
- measurement.target: Casein kinase II subunit alpha (Homo sapiens) (UniProt P68400);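 also: reported value is the mean CK2 inhibition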
- Sequence (P68400 whole entry, looked up): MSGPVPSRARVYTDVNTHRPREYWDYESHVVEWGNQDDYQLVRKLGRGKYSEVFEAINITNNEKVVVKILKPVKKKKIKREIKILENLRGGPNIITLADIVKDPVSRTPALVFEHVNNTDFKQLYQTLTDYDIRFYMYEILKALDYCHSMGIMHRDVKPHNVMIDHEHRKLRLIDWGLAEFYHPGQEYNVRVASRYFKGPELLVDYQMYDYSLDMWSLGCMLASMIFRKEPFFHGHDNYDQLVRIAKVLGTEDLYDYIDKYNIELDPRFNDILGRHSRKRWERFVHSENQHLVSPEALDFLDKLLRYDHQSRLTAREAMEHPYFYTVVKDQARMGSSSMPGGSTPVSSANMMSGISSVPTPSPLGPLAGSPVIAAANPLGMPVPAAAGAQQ
- conditions: at 1 µM
measured.property: inhibition (%)

COc1cccc(-n2ncc3c(N/N=C/c4ccc(C(=O)NCCN(C)C)cc4)ncnc32)c1 = 62.2
O=C(Nc1n[nH]c2nnc(-c3cccnc3)cc12)C1CC1 = 5.42
CNC(=O)c1sc(-n2cnc3cc(OC)c(OC)cc32)cc1OCc1ccccc1C(F)(F)F = 1.77
O=C(O[C@H]1CN[C@H](C#Cc2cc3ncnc(Nc4ccc5c(ccn5Cc5cc(F)ccc5F)c4)c3s2)C1)N1CCOCC1 = 0.25
Fc1ccc(Nc2nccc(-c3c(-c4ccc(C(F)(F)F)cc4)nn4ncccc34)n2)cc1F = 1.28
